Test system: HCT-116 colon
ASSAY_PROTOCOL: NCI tumour cell line growth inhibition, 48 h
PROPERTY_LABEL: TGI

Example entries and their recorded answers appear below.
Incoming: Consider the compound COc1cccc(C2c3cc4c(cc3OC(NNS(=O)(=O)c3ccc(C)cc3)C2C)OCO4)c1O (stereo not given) and give its measured TGI.
Outgoing: 30.1 µM

Incoming: Would you mind telling me what TGI value was observed for `Nc1nc(N)c(CCCCc2ccc([N+](=O)[O-])cc2)c(N)n1` ?
Outgoing: > 100 µM

Incoming: # lookup: TGI of `O=C(NCCN1CCOCC1)c1cc2c(Oc3ccc(NC(=O)C4(C(=O)Nc5ccc(F)cc5)CC4)cc3)ccnc2[nH]1`
Outgoing: > 100 µM

Incoming: What TGI value was documented for this compound, CN1N=C(c2ccncc2)OC1c1ccc(C(F)(F)F)cc1 (stereo not given) ?
Outgoing: > 100 µM

Continuing:
Incoming: Which TGI value belongs to CC(C)C(Sc1nc(N)nc2nc[nH]c12)C(=O)O (stereo not given) ?
Outgoing: > 100 µM

###

Tested on: SF-539 CNS
ASSAY_PROTOCOL: NCI tumour cell line growth inhibition, 48 h
PROPERTY_LABEL: TGI (µM)
Numbers only; they are read as µM.

Example results:
Incoming: Item `CCOC(=O)c1c(CN2CCCCC2)nc2ccc(Cl)cc2c1-c1ccccc1` has what recorded TGI?
Outgoing: 66.2

Incoming: State the recorded TGI for this entry: `c1c2c(cc3c1OCO3)-c1ncc3cc4c(cc3c1C2)OCO4`
Outgoing: 5.25

Incoming: Return reported TGI; argument: `N#Cc1cnn(C(=O)c2nn(-c3ccc(Cl)cc3)cc2O)c1N`
Outgoing: 7.85

Turning now to a further molecule:
Incoming: Item under review: CCCCCn1sc(=O)n(Cc2ccc(CNC(=O)C(C)c3ccc(CC(C)C)cc3)cc2)c1=O (stereo not given) . Reported TGI?
Outgoing: 2.44

###

TGI listing for selected molecules.
Test system: HCC-2998 colon
ASSAY_PROTOCOL: NCI tumour cell line growth inhibition, 48 h

Some solved entries appear below for comparison.
Incoming: I am curious: what TGI value has been reported for CN(C(=O)C12C3C4C1C1C2C3C41C#N)C(C)(C)C (stereo unspecified) ?
Outgoing: > 100 µM

Incoming: Using the record for COc1ccc(C(CC(=O)c2cccs2)C(=O)c2ccc3c(c2)OCO3)cc1 (stereo unspecified) , report its TGI.
Outgoing: > 100 µM

Incoming: # get_value(readout='TGI', item= CC[C@H](C)[C@H](NC(=O)CN(C)C)C(=O)N(C)[C@H](C[C@@H](OC(C)=O)c1nc(C(=O)NC23C4C5C2C2C3C4C52C(=O)OC)cs1)C(C)C (stereo partly specified) )
Outgoing: > 33.2 µM

---
Incoming: For `CCOC(=O)c1cccc(N=NNc2cccc(C(=O)OCC)c2)c1` , what is its reported TGI?
Outgoing: > 100 µM

Incoming: Value lookup for TGI; key = `CCOC(=O)Nc1cc2c(c(N)n1)N=C(c1ccc(Cl)cc1Cl)CN2`
Outgoing: 2.6 µM

Incoming: Give the measured TGI of `CCN(CC)c1ccc(N=Nc2ccc(-c3nc4cccnc4s3)cc2)cc1` .
Outgoing: > 100 µM

Incoming: Given the molecule Clc1ccc(Cc2nc3cc(Cl)c(Cl)cc3n2CC2CCCN3CCCCC23)cc1 (stereo unspecified) , what is its reported TGI?
Outgoing: 14.6 µM

Incoming: Name the recorded TGI for `NS(=O)(=O)c1cccc(Nc2cc(-c3ccc(F)cc3)[nH]n2)c1` .
Outgoing: > 25 µM

Incoming: Which TGI is listed for `ClC/C=C/CSc1ncnc2nc[nH]c12` ?
Outgoing: > 100 µM

Incoming: Quick check: TGI of O=C(NCC(O)COc1ccccc1)c1ccccc1O (stereo unspecified) ?
Outgoing: > 100 µM

Incoming: TGI lookup needed for `O=C(Nc1c[nH]c(=O)[nH]c1=O)Oc1ccccc1` , thanks.
Outgoing: > 100 µM

Incoming: Quick check: TGI of `CCOC(=O)/C(C(=O)c1ccc[nH]1)=C1/CCCN1C` ?
Outgoing: > 100 µM

Incoming: Would you kindly share the measured TGI for `Cc1cccc(NC(=S)NNC(=O)c2cc(-c3ccccc3)nc3ccccc23)c1` ?
Outgoing: 57.3 µM

###

Test system: SNB-19 CNS
ASSAY_PROTOCOL: NCI tumour cell line growth inhibition, 48 h
PROPERTY_LABEL: TGI

Answered cases to consult:
Incoming: Find the recorded TGI belonging to `CC(=O)[CH-]C(=O)c1ccccc1.CC(=O)[CH-]C(=O)c1ccccc1.Cl.[O-]CCc1ccccn1.[O-]CCc1ccccn1.[Ti+4]` and report it.
Outgoing: 49 µM

Incoming: Look at this compound and give its reported TGI. `C(/C=C(\Nc1ccccc1)c1ccc2ccccc2c1)=Nc1ccccc1`
Outgoing: 8.24 µM

Incoming: For the compound shown here, `c1c2c(cc3c1OCO3)-c1ncc3cc4c(cc3c1C2)OCO4` , give the reported TGI.
Outgoing: 43.6 µM

Incoming: May I ask what TGI has been recorded for `CCOC(=O)c1c(N2CCN(C)CC2)[nH]c(=O)c(C(c2c(Cl)cccc2Cl)c2c(O)c(C(=O)OCC)c(N3CCN(C)CC3)[nH]c2=O)c1O` ?
Outgoing: 37.2 µM

---
Incoming: Please give the measured TGI for this compound: O=C(CC1(O)C(=O)Nc2ccccc21)c1cccc(O)c1 (stereo not drawn)
Outgoing: > 100 µM

Incoming: # get_value(readout='TGI', item= `COc1ccc2c(c1O)[C@@]13CCCC=C1[C@@H](C2)N(C)CC3` )
Outgoing: > 100 µM

Incoming: Quick one: TGI of CCCCCCCC(=O)NC(C)(C)C(=O)NCC(=O)NC(CC(C)C)C(=O)NC(C)(C)C(=O)NCC(=O)NCC(=O)NC(CC(C)C)C(=O)NC(C)(C)C(=O)NCC(=O)NC(C(=O)NC(CO)CC(C)C)C(C)CC (stereo not drawn) ?
Outgoing: 6.83 µM

Incoming: Quick one: TGI for `Cc1cnc(C(=O)Nc2nc3ccc(S(=O)(=O)Nc4ccc(C(C)(C)C)cc4)cc3[nH]2)cn1` ?
Outgoing: 13.7 µM

Incoming: Look at this compound and give its reported TGI. CCC(CCCC[C@H]1CC[C@@H]2CC(=O)C[C@H]12)OC (stereo partly drawn)
Outgoing: > 100 µM

###

Tested on: OVCAR-5 ovarian
ASSAY_PROTOCOL: NCI tumour cell line growth inhibition, 48 h
PROPERTY_LABEL: TGI

Incoming: Reported TGI for OVCAR-5 ovarian, given COc1cc(O)c(C(=O)C2Cc3ccccc32)c(OC)c1 (stereo not given) ?
Outgoing: > 100 µM

Incoming: Can you look up TGI on OVCAR-5 ovarian for `CCOC(=O)c1c(NS(=O)(=O)c2ccccc2)sc2c1CCCC2` ?
Outgoing: > 100 µM

Incoming: Recorded TGI for CCOC(=O)C1=C(C)N(NC(=O)Nc2ccccc2)C2(N)N(NC(=O)Nc3ccccc3)C(C)=C(C(=O)OCC)C12C#N (stereo not given) with OVCAR-5 ovarian, please?
Outgoing: 32.4 µM

Incoming: Quick check: TGI on OVCAR-5 ovarian, item `CCOC(=O)c1c(CN2CCCCC2)nc2ccc(Cl)cc2c1-c1ccccc1` ?
Outgoing: 36.6 µM

Incoming: Look up TGI with OVCAR-5 ovarian for this compound: `CN(C)NC(=O)NC12CC3CC(CC(C3)C1)C2`
Outgoing: > 100 µM

Turning now to a further record.
Incoming: Hello, I am looking for reported TGI with OVCAR-5 ovarian for O=C(OC1C#CCSCC#C/C=C\1)c1ccc2c(c1)C(=O)c1ccccc1C2=O (stereo not given) . Could you help?
Outgoing: > 100 µM

###

Test system: EKVX NSCLC
ASSAY_PROTOCOL: NCI tumour cell line growth inhibition, 48 h; in the data active means GI50 below about 0.43 µM; inactive means the rest
Just give me one of these, please: active, inactive

Incoming: Field: outcome | Entry: COc1cc(/C=N/NC(=O)c2cnn3c2NC(c2ccccc2)C3)ccc1OCc1ccccc1 (stereo not drawn)
Outgoing: inactive

Incoming: Per the records of this test, what outcome belongs to `O=C(/C=C/c1ccco1)Nc1ncc(Cc2cc(Cl)ccc2Cl)s1` ?
Outgoing: active

Incoming: I would be grateful if you could indicate the recorded call for `COc1ccc(/C(=C(\c2ccccc2)[N+](=O)[O-])c2ccc(OCCN3CCCC3)cc2)cc1` .
Outgoing: inactive

Incoming: Please indicate how the test categorized `OC[C@H]1C[C@](O)(c2ccccc2Cl)[C@@H](c2ccccc2Cl)O1` .
Outgoing: inactive

Incoming: Per the assay record, what outcome was assigned to `Cc1cnc(C(=O)Nc2nc3ccc(S(=O)(=O)Nc4ccc(C(C)(C)C)cc4)cc3[nH]2)cn1` ?
Outgoing: inactive

###

Tested on: SW-620 colon
ASSAY_PROTOCOL: NCI tumour cell line growth inhibition, 48 h
Measured TGI values are reported for all entries that follow.

Below, each entry is followed by its recorded TGI result.
Incoming: What measured TGI goes with `O=C(/C=C/c1ccco1)Nc1ncc(Cc2cc(Cl)ccc2Cl)s1` ?
Outgoing: > 100 µM

Incoming: # input molecule: `O=C(O)CN(CCN(CC(=O)O)CC(=O)O)CC(=O)O.[Cu+2].[Na+]` ; wanted: its TGI
Outgoing: > 100 µM

Incoming: For the molecule `CCn1c(=O)nc2n(-c3ccc(SC)cc3)c3ccccc3nc-2c1=O` , what TGI is on record?
Outgoing: > 100 µM

Incoming: # get_value(readout='TGI', item= `N#Cc1cnn(C(=O)c2nn(-c3ccc(Cl)cc3)cc2O)c1N` )
Outgoing: 21 µM

Incoming: So what's the measured TGI for this one? `CCOC(=O)c1cccc(N=NNc2cccc(C(=O)OCC)c2)c1`
Outgoing: > 100 µM

Continuing:
Incoming: Tell me the measured TGI of `C#C[C@]1(O)CC[C@H]2[C@@H]3CCC4=C/C(=N/OC(=O)c5cccc6cc7ccccc7nc56)CC[C@@H]4[C@H]3CC[C@@]21CC` , please.
Outgoing: > 100 µM

Incoming: What value of TGI has been reported for the following molecule? CC(=O)OC1COC(N2C(=O)C(=O)c3ccccc32)C(OC(C)=O)C1OC(C)=O (stereo unspecified)
Outgoing: > 100 µM

Incoming: So what does the record say about TGI for `COc1ccc2cc(CNCCCCCCNC(=O)Nc3cccc4ccccc34)ccc2c1` ?
Outgoing: > 100 µM

Incoming: I have this molecule here, `COc1ccc(/C=C(\C#N)c2ccccn2)cc1OC` , and I need its recorded TGI.
Outgoing: > 100 µM

Incoming: Give its TGI value. Item: `Nc1ncc(CN2CCCC2)c(-c2ccccc2O)n1`
Outgoing: > 750 µM

Incoming: Form field: reported TGI of CNC(=O)OC1/C(C)=C\C(C)C(O)C(OC)CC(C)CC2=C(OC)C(=O)C=C(C2=O)N(C)C(=O)/C(C)=C/C=C\C1OC (stereo unspecified)
Outgoing: 12.5 µM

Incoming: May I ask what TGI has been recorded for COc1oc(C2C/C(=C/C(C)=C/C(C)=C/C(C)=C/c3ccc([N+](=O)[O-])cc3)CO2)c(C)c(=O)c1C (stereo unspecified) ?
Outgoing: > 100 µM

Incoming: Dear colleague, I am looking for the recorded TGI of the following molecule: `N#C/C(=C/c1ccc([N+](=O)[O-])o1)c1ccccc1`
Outgoing: > 100 µM

Incoming: What value of measured TGI is listed for `CC1=C(C(=S)Nc2ccc(Cl)c(C(=O)OC(C)C)c2)SCCO1` ?
Outgoing: 44.7 µM

Incoming: Please report the recorded TGI for `COc1cc(/C=N\Nc2ccccc2)ccc1OC(=O)c1ccccc1` .
Outgoing: 19.9 µM

Incoming: What value of TGI has been recorded for this entry: COC1=CC(=O)[C@@]2(C)C(C)[C@H](c3ccccc3)[C@H]2C1=O (stereo partly specified)
Outgoing: > 100 µM

Incoming: # TGI lookup, item `Cc1cccc(NC(=S)NNC(=O)c2cc(-c3ccccc3)nc3ccccc23)c1`
Outgoing: > 100 µM

Incoming: Given CCOC(=O)C1=C(C)N(NC(=O)Nc2ccccc2)C2(N)N(NC(=O)Nc3ccccc3)C(C)=C(C(=O)OCC)C12C#N (stereo unspecified) , state its recorded TGI.
Outgoing: 36.2 µM

Incoming: Record request: TGI value, item `CCCCCCCCCC(=O)Oc1ccc(/C(=C(/C)c2ccccc2)c2ccc(OCCN3CCCC3)cc2)cc1`
Outgoing: 15.6 µM

Incoming: So what's the measured TGI for this one? `COC(=O)[C@@H]1CN(C(=O)Cc2ccccc2)C(=O)N1`
Outgoing: > 100 µM

Incoming: Which TGI reading was recorded for the molecule `Cc1ccc(-c2ccc3c(c2)Sc2ccccc2O3)n1C` ?
Outgoing: > 100 µM
